// data source = ChEMBL document CHEMBL1138252

Below, each entry is listed with its recorded inhibition.
- SYSTEM TESTED: Prostaglandin G/H synthase 2 (Homo sapiens) (UniProt P35354);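 also: recombinant human COX2 made in Sf9 insect cells, read-out is reactive oxygen species formed on arachidonic acid stimulation, measured after 30 min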
- Sequence (P35354 whole entry): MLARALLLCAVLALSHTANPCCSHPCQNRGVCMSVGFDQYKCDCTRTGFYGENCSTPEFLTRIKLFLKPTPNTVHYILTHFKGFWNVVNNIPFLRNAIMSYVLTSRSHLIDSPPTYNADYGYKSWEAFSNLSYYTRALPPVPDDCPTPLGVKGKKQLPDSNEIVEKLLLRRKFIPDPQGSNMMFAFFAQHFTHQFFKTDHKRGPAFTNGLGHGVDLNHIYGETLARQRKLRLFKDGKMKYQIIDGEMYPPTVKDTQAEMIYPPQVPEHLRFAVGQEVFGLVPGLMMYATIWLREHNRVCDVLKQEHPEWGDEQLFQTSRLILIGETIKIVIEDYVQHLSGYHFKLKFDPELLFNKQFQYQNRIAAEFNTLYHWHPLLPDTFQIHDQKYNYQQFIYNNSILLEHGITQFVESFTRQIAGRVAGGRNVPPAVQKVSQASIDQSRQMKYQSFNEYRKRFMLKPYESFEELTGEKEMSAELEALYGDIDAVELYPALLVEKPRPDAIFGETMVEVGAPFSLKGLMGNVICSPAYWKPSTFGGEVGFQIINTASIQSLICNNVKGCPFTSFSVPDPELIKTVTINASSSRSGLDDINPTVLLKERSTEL
- STUDY CONDITIONS: Spodoptera frugiperda; Sf9; at 10 µM
- Description: Inhibition of human recombinant COX2 expressed in insect sf9 cells assessed as arachidonic acid-stimulated reactive oxygen species at 10 uM after 30 mins
Express the result in % but write the number alone.

// solved cases for inhibition follow
-- ask Would you kindly share the measured inhibition for `COC(=O)[C@@]1(C)CC[C@]2(C(=O)NCc3ccccc3Cl)CC[C@]3(C)C(=CC[C@@H]4[C@@]5(C)C[C@H](O)[C@H](O[C@@H]6OC[C@@H](O[C@@H]7O[C@H](CO)[C@@H](O)[C@H](O)[C@H]7O)[C@H](O)[C@H]6O)[C@@](C)(CO)[C@@H]5CC[C@]43C)[C@@H]2C1` ?
-- reply 82.9

-- ask Would you kindly share the measured inhibition for `COC(=O)[C@@]1(C)CC[C@]2(C(=O)NCc3ccc(F)cc3)CC[C@]3(C)C(=CC[C@@H]4[C@@]5(C)C[C@H](O)[C@H](O[C@@H]6OC[C@@H](O[C@@H]7O[C@H](CO)[C@@H](O)[C@H](O)[C@H]7O)[C@H](O)[C@H]6O)[C@@](C)(CO)[C@@H]5CC[C@]43C)[C@@H]2C1` ?
-- reply 58.1

More entries:
-- ask Would you kindly share the measured inhibition for `COC(=O)[C@@H](Cc1c[nH]c2ccccc12)NC(=O)[C@]12CC[C@](C)(C(=O)OC)C[C@H]1C1=CC[C@@H]3[C@@]4(C)C[C@H](O)[C@H](O[C@@H]5OC[C@@H](O[C@@H]6O[C@H](CO)[C@@H](O)[C@H](O)[C@H]6O)[C@H](O)[C@H]5O)[C@@](C)(CO)[C@@H]4CC[C@@]3(C)[C@]1(C)CC2` ?
-- reply 47.7
